// data source = PubChem BioAssay (NCI)

Experiment: NCI Yeast Anticancer Drug Screen. Data for the sgs1 mgt1 strain (AID 161);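 also: 0% = growth of cultures given vehicle only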
Details: S. cerevisiae sgs1 mgt1 strain, at 50.0 µM (retest, dose inferred, filed as 5.0)
The panel holds about 79,000 compounds, 15% with a hit somewhere; the sample as a whole holds those more often. The source made the active and inactive calls. Rule as the data show it: active = growth inhibition above about 70%; inactive = the rest.
Labels: active, inactive

{"columns": ["COMPOUND", "CLASS_LABEL"],
 "data": [
  ["N#CC(=C=N)N=C(F)C(C#N)=C(C#N)C#N", "active"],
  ["C/C(CCl)=N/NC1=NC(c2ccccc2Cl)P(=O)(NCCCNP2(=O)SC(N/N=C(/C)CCl)=NC2c2ccccc2Cl)S1 (centres undefined)", "inactive"],
  ["c1cc[c]([Pb]([c]2ccccc2)[c]2ccccc2)cc1.c1cc[c]([Pb]([c]2ccccc2)[c]2ccccc2)cc1", "active"],
  ["C1CC[N-]CC1.[Cl][Au]([Cl])[Cl]", "active"],
  ["CCN(CC)CC.CCOc1ccc(NC(=O)N=C=[N-])cc1.[CH-]1CCCCC1.[CH-]1CCCCC1.[CH-]1CCCCC1.[Cl-].[Sn+4]", "active"],
  ["Cn1cc(NC(=O)c2cc(NC(=O)CN=C(N)N)cn2C)cc1C(=O)NCCC(=N)N", "inactive"],
  ["CCC(=O)OC1CCn2c1nc1c2C(=O)C(C)=C(N2CC2)C1=O (centres undefined)", "inactive"],
  ["CCC1(O)C(=O)OCc2c1cc1n(c2=O)Cc2cc3cc([N+](=O)[O-])ccc3nc2-1 (centres undefined)", "inactive"],
  ["c1ccc(P(CC[As](c2ccccc2)c2ccccc2)CC[As](c2ccccc2)c2ccccc2)cc1", "inactive"],
  ["C/C(=N\\O)C(CN(C)C)C(c1ccccc1)c1c(O)c2ccccc2oc1=O (centres undefined)", "inactive"],
  ["Cc1ccc(P(c2ccc(C)cc2)c2ccc(C)cc2)cc1", "inactive"],
  ["O=C(Nc1ccccc1)OC(C[N+](=O)[O-])C(Cl)(Cl)Cl (centres undefined)", "active"],
  ["O=[N+]([O-])c1ccccc1", "inactive"],
  ["O=P1(NCCCl)OC(c2ccccc2)=CCN1CCCl (centres undefined)", "inactive"]
]}

---

Assay: NCI Yeast Anticancer Drug Screen. Data for the rad52 strain (AID 147);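 also: 0% = growth of vehicle-treated control cultures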
Conditions: S. cerevisiae rad52 mutant growth inhibition; at 11.0 µM; active compounds read high
Method: Growth inhibition of yeast strains with defined genetic alterations is measured as a screen for potential anti-cancer activity. Selected strains with alterations in DNA damage repair or cell cycle control were exposed to compounds and growth inhibition was measured relative to vehicle treated controls. The strain used in this assay is rad52
Compounds without any hit were thinned out: in the full panel of roughly 79,000, 15% have a hit.
METRIC: growth inhibition (%)

{"columns": ["MOLECULE", "NUMBER"],
 "data": [
  ["C/C(=N\\NC(N)=O)C(CN1CCOCC1)C(c1ccccc1)c1c(O)c2ccccc2oc1=O (stereo not given)", 0],
  ["CNC(=O)ON(C(C)=O)C(=O)NC", -22],
  ["C/C(CCl)=N/NC1=NC(c2ccccc2Cl)P(=O)(NCCCNP2(=O)SC(N/N=C(/C)CCl)=NC2c2ccccc2Cl)S1 (stereo not given)", -2],
  ["O=C(O)C1C2CCC(C2)C1c1ccccc1 (stereo not given)", -6],
  ["CCC1(O)C(=O)OCc2c1cc1n(c2=O)Cc2cc3ccccc3nc2-1 (stereo not given)", 95],
  ["C[C@]12CCc3nonc3C1CC[C@@H]1C2CC[C@]2(C)C(=O)CCC12 (stereo not given in full)", 22],
  ["O=C(O)CCCOc1cc(Cl)c(Cl)cc1Cl", 1],
  ["C[N+](CCCl)(CCCl)Cc1cccc2cccc([N+](=O)[O-])c12", 74],
  ["O=C1C=CC(=O)C1(Br)Br", 62],
  ["O=C(NNC(=O)OCC(Cl)(Cl)Cl)OCC(Cl)(Cl)Cl", 2],
  ["O=C1OC2C(O1)C1(Cl)C(Cl)=C(Cl)C2(Cl)C1(Cl)Cl (stereo not given)", -1],
  ["Oc1ccc2nc3ccccc3nc2c1", 24],
  ["O=C1C=C(CN(CCCl)CCCl)C(=O)C=C1CN(CCCl)CCCl", 4],
  ["Cn1cnc(N)c1C(=N)[Se]", 70],
  ["O=S(=O)(O)c1ccc(Cl)cc1.[Cd]", 35]
]}
